Test: NCI Yeast Anticancer Drug Screen. Data for the bub3 strain (AID 167)
Settings: S. cerevisiae bub3 mutant strain, at 50.0 µM
Compounds without any hit were thinned out: in the full panel of roughly 79,000, 15% have a hit. Active and inactive are the calls of the source. Rule as the data show it: active = growth inhibition above about 70%; inactive = the rest.
Possible outcomes: active, inactive

| Molecule | Category |
| --- | --- |
| Cc1nc(N)[nH]c(=O)c1CCCNc1ccc(CCCCCCC2(CCl)OCCO2)cc1 | inactive |
| CCCCCCc1c(C)nc(N)[nH]c1=O | inactive |
| c1ccc(C2=NC(c3ccccc3)N=C(c3ccccc3)N2)cc1 | inactive |
| CCCOc1ncnc2nc[nH]c12 | inactive |
| CC1=C(CCC(C)N)C(C)(C)CCC1 (configuration not stated) | inactive |
| CCN(CC)C(=O)C1CCCCN1 (configuration not stated) | inactive |
| Cc1cc(/C=N/NC(=O)c2ccccc2NC(=O)c2ccccc2Cl)ccc1O | inactive |
| COc1cc2[nH]c3c(c2cc1OC)CCN[C@@]31CC[C@@]2(CC3c4c(cc(OC)c(O)c42)CCN3C)C[C@@H]1OC (some centres not stated) | inactive |
| CSc1nc2c([nH]1)c(=O)n(C)c(=O)n2C | inactive |
| C/C=N\C(N)=S | inactive |
| CC(C)(CO)C(Cl)C(=O)NCCC(=O)O (configuration not stated) | inactive |
| C(=C\c1csnn1)/c1cccnc1 | inactive |
| CCN(CC)CCOC(=O)Cc1ccccc1 | inactive |
| CCSc1n[nH]c(=S)c2nc[nH]c12 | inactive |
| CCCc1nc2ccccc2c(=O)n1/N=C/c1ccc(Cl)cc1 | inactive |
| CN1CCC(CO)CC1 | inactive |
| COc1ccc(Nc2cc(N)nc(N)n2)c(=S)[nH]1 | inactive |
| CC1(C)N=C(N)N=C(N)N1c1cccc(CCC(=O)Nc2cccnc2)c1 | inactive |
| O=C([CH-]C(=O)C(F)(F)F)c1ccccc1.O=C([CH-]C(=O)C(F)(F)F)c1ccccc1.O=C([CH-]C(=O)C(F)(F)F)c1ccccc1.[Ru+3] | inactive |
| O=C(Nc1ccccc1[N+](=O)[O-])Oc1ccc(-c2ccccc2)cc1 | inactive |
| Cc1cc(N(CCC#N)S(=O)(=O)c2ccccc2)ccc1C=O | inactive |
| CC1OC(c2ccccc2)OC1C (configuration not stated) | inactive |
| Cc1ccc(COC(=O)Nc2ccc(C)c(NC(=O)OCc3ccc(C)cc3)c2)cc1 | inactive |
| Nc1ccccc1SC1CC(=O)N(c2ccc(Br)cc2)C1=O (configuration not stated) | inactive |
| O=[N+]([O-])c1ccc(N/N=C(/c2ccccc2)C2CCCC2)c([N+](=O)[O-])c1 | inactive |
| CC(C)CCC[C@@H](C)[C@H]1CC[C@H]2[C@@H]3CC[C@H]4CC5(C[C@]4(C)[C@H]3CC[C@]12C)Nc1ccccc1S5 (some centres not stated) | inactive |
| CCCN1CCc2c([nH]c3cc(OC)ccc23)C1C (configuration not stated) | inactive |
| O=C1C(=O)N(C2CCCCC2)C(=S)N1C1CCCCC1 | inactive |
| c1ccc(CSc2nc3ccccc3nc2-c2cccs2)cc1 | inactive |
| O=S(=O)(CCS(=O)(=O)c1ccccc1)c1ccccc1 | inactive |
| CC(=O)C1=C(C)C2CC3(C)CC(C2(C)C1)C3(C)C (configuration not stated) | inactive |
| CCOc1ccc(NC(=S)NC=C(C(N)=O)C(N)=O)cc1 | inactive |
| O=C1CC2(CCc3ccccc32)C(=O)N1CN1CCN(c2ccccn2)CC1 (configuration not stated) | inactive |
| CN(C)/C=C/c1nnnn1-c1ccc(I)cc1 | inactive |
| O=C1c2ccccc2-c2oc(=O)c3ccccc3c21 | inactive |
| O=C1c2ccccc2C(=C(c2ccccc2)c2ccccc2)c2ccccc21 | inactive |
| Cc1ccccc1N=C(N)NC#N | inactive |
| CC(=O)Nc1ccc2c([N+](=O)[O-])cccc2c1-c1c(NC(C)=O)ccc2c([N+](=O)[O-])cccc12 | inactive |
| C=CCN(CC=C)CCNc1cc(C)nc(/N=C(\N)Nc2ccc(Cl)c(Cl)c2)n1 | active |
| CN(C)N=Nc1ccc(C(=O)NC(Cc2ccccc2)C(=O)O)cc1 (configuration not stated) | inactive |
| CCOC(=O)c1c(N)sc2c1C(C(=O)OCC)CCCC2 (configuration not stated) | inactive |
| CCCCC(C(O)c1ccc(C(C)C)cc1)N(CC)CC (configuration not stated) | inactive |
| Cc1ccc(S(=O)(=O)Cc2c(C)cc(C)cc2C)cc1 | inactive |
| Clc1cccc(N2CCN(CCN3CCc4c([nH]c5ccccc45)C3c3cccnc3)CC2)c1 (configuration not stated) | inactive |
| CC(C)(C)C1=NC(S)NC(CCC(=O)Nc2ccccc2[N+](=O)[O-])=C1 (configuration not stated) | inactive |
| Nc1ncnc2c1N=C(c1ccccc1)CC(c1ccccc1)N2 (configuration not stated) | inactive |
| O=C(CCl)Nc1ccc(SSc2ccc(NC(=O)CCl)cc2)cc1 | inactive |
